biological target: Recombinant human IL-1β (BioLegend 579404) (human, UniProt P01584 117-269); experiment: cell-based or functional assay
Starred links: 1 amine or outer side, 2 acyl side, 3 side chain; linkers in the order of their positions; H or OH if unused. Non-standard residues stand in square brackets, D forms with d. No end group written: not given here. dProc3CH24Pal = (2R,3S)-3-(4-pyridylmethyl)pyrrolidine-2-carboxylic acid, O=C([C@H]1[C@@H](Cc2ccncc2)CCN1[*:1])[*:2]; daMeSMe = (2R)-2-amino-3-methoxy-2-methyl-propanoic acid, COC[C@@](C)(N[*:1])C(=O)[*:2]; Trp(βS-Me,4-F) = C[C@@H](c1c[nH]c2cccc(F)c12)[C@H](N)C(=O)O; Bip(4'-COOH) = N[C@@H](Cc1ccc(-c2ccc(C(=O)O)cc2)cc1)C(=O)O; Ala(1-bicyclo(1.1.1)pentyl) = N[C@@H](CC12CC(C1)C2)C(=O)O; dPro(4R-Bzl(4-F)) = O=C(O)[C@H]1C[C@@H](Cc2ccc(F)cc2)CN1; Ala(morpholin-4-yl) = N[C@@H](CN1CCOCC1)C(=O)O; Ala(piperazin-1-yl) = N[C@@H](CN1CCNCC1)C(=O)O; Ala(pyrimidin-5-yl) = N[C@@H](Cc1cncnc1)C(=O)O; Phe(4-COOH) = N[C@@H](Cc1ccc(C(=O)O)cc1)C(=O)O; Pro(cis-4-F) = O=C(O)[C@@H]1C[C@H](F)CN1; d(αMeD) = C[C@@](N)(CC(=O)O)C(=O)O; 4Pal = N[C@@H](Cc1ccncc1)C(=O)O; d(αMeS) = C[C@@](N)(CO)C(=O)O; dCba = N[C@H](CC1CCC1)C(=O)O; αMeK = C[C@](N)(CCCCN)C(=O)O; hSer = N[C@@H](CCO)C(=O)O; Dab = NCC[C@H](N)C(=O)O; Aib = CC(C)(N)C(=O)O
RECORDED METRIC: MRC5 IC50 (nM)
Answer with a number only, understood to be in nM.

# example entries with known answers
# BINDER, MRC5 IC50 [nM]
rows = [
    ("cyclo([Bip(4'-COOH)][Ala(1-bicyclo(1.1.1)pentyl)][Phe(4-COOH)]G[Pro(cis-4-F)][Trp(βS-Me,4-F)][Aib]SW[d(αMeS)][Ala(piperazin-1-yl)]Q[Dab]G[dPro(4R-Bzl(4-F))]) (ring closure inferred) [SEQ ID NO: 171]", 0.016),
    ("[Bip(4'-COOH)][4Pal][Phe(4-COOH)]G[Pro(cis-4-F)][Trp(βS-Me,4-F)][Aib]SW[d(αMeD)][dCba]Q[Dab]G[dProc3CH24Pal] (lactam (positions not given here); also: macrolactam, ring places not given here) [SEQ ID NO: 239]", 0.02),
    ("[Bip(4'-COOH)][4Pal][Phe(4-COOH)]G[Pro(cis-4-F)][Trp(βS-Me,4-F)][Aib]SW[daMeSMe][Ala(pyrimidin-5-yl)]Q[Dab]G[dProc3CH24Pal] (lactam (positions not given here); also: macrolactam, ring places not given here) [SEQ ID NO: 224]", 0.03),
]

Using the record for cyclo([Bip(4'-COOH)][Ala(1-bicyclo(1.1.1)pentyl)][Phe(4-COOH)]G[Pro(cis-4-F)][Trp(βS-Me,4-F)][Aib]SW[αMeK][Ala(morpholin-4-yl)]Q[Dab]G[dPro(4R-Bzl(4-F))]) (ring closure inferred; not fully specified (bridges); printed as Bip4CO2H-AlaPent-Phe4COOH-G-Proc4F-SbMeW4F-Aib-S-W-aMeK-AlaMph-Q-Dab-G-dProc4Bn4F, cyclic (macrolactam)) [SEQ ID NO: 174] , report its MRC5 IC50.
0.025

Using the record for cyclo([Bip(4'-COOH)][Ala(1-bicyclo(1.1.1)pentyl)][Phe(4-COOH)]G[Pro(cis-4-F)][Trp(βS-Me,4-F)][Aib][hSer]W[αMeK][Ala(pyrimidin-5-yl)]Q[Dab]G[dPro(4R-Bzl(4-F))]) (ring closure inferred; not fully specified (bridges); printed as Bip4CO2H-AlaPent-Phe4COOH-G-Proc4F-SbMeW4F-Aib-hS-W-aMeK-PyrimAla-Q-Dab-G-dProc4Bn4F, cyclic (macrolactam)) [SEQ ID NO: 147] , report its MRC5 IC50.
0.045
